Catalogue of inhibition values
target: Solute carrier family 2, facilitated glucose transporter member 1 (Homo sapiens) (UniProt P11166); test: ST_JUDE_LEISH: Cytotoxicity at 2uM final concentration against transgenic Leishmania Mexicana promastigotes LmGLUT1 that are glucose transport deficient and complemented with the human glucose transporter GLUT1. Activity is measured by DNA content using SYBR green in vitro; type: functional
Sequence (P11166 whole entry): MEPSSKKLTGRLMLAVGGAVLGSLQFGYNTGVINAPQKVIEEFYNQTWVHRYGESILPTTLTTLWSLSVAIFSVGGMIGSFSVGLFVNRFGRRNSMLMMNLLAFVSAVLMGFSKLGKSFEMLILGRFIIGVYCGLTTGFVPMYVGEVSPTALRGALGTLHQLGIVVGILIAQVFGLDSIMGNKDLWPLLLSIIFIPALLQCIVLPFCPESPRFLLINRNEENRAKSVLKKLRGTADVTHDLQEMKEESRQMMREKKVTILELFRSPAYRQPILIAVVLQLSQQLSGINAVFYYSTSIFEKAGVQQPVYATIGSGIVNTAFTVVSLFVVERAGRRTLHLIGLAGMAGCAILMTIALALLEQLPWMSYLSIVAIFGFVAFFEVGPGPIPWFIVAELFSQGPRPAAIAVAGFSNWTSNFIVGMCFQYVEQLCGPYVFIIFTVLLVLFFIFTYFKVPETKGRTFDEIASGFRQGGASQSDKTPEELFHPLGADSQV
Answer format: numeric, % implied, no suffix.

Previously resolved entries follow.
molecule	inhibition (%)
CCNc1cc(C(=O)N[C@@H](Cc2ccccc2)[C@H](O)CNC(C)(C)CSCC(C)C)cc(N2CCCC2=O)c1	1.84
Cc1[nH]c(C)c(-c2ccc(-c3cccc(OC(F)(F)F)c3)nc2)c(=O)c1Cl	-1.57

Query: inhibition; subject: Cc1cc(NC(=O)c2sc3ccccc3c2O)no1
2.41

Query: inhibition; subject: Cn1cncc1C(=O)Nc1cccc(-c2ccc(-c3nc4cc(C(F)(F)F)ccc4[nH]3)cc2)c1
9.17

Query: inhibition; subject: N#Cc1ccc2c(c1)CCN(CCC1CCC(NC(=O)c3cc4ccccc4[nH]3)CC1)CC2 (stereo not given)
8.94

----------
target: Solute carrier family 2, facilitated glucose transporter member 1 (Homo sapiens); test: ST_JUDE_LEISH: Cytotoxicity at 2uM final concentration against transgenic Leishmania Mexicana promastigotes LmGLUT1 that are glucose transport deficient and complemented with the human glucose transporter GLUT1. Activity is measured by DNA content using SYBR green in vitro; type: functional
# binning rule on inhibition: I: < 4%; II: ≥ 4% and < 7%; III: ≥ 7%

compound	class_name
Cc1cccc2nc(-c3cccc(-c4ccc(NC(=O)C(C)CN5CCOCC5)cc4)c3)[nH]c12 (stereo not given)	I

Band for COc1ccc(CN2CCC(CNCCc3ccccc3Cl)CC2)cc1 ?
III

Band for C/C=C/C=C/C1=NCCc2cc(OCCC)ccc21 ?
III

Band for CC(C)COc1ccc(Cl)cc1Cc1ccc(-c2nc3ccc(C(F)(F)F)cc3[nH]2)o1 ?
I

Band for O=C(Nc1cccc(CN2CCCN(Cc3ccc(O)cc3)CC2)c1)c1cccc(C(F)(F)F)c1 ?
III

Band for O=C(NCCc1ccccc1)N(Cc1ccccc1-c1cccc(CNCCc2ccccc2)c1)C1CCN(Cc2ccccc2)CC1 ?
I

Band for Cc1ccccc1Nc1nc(NCc2ccccc2)nc2ccccc12 ?
III

Band for Cc1cccc2nc(-c3cccc(-c4cccc(NC(=O)c5c[nH]cn5)c4)c3)[nH]c12 ?
I

Band for COc1ccc(-c2cnc(N)c(-c3ccc(O)c(OC)c3)c2)cn1 ?
I

Band for O=C(Nc1ccc(Cl)c(Cl)c1)N1CCC(NCc2cccc([N+](=O)[O-])c2)CC1 ?
II

Band for CCCCCC(C)C(C)c1cc(O)c2c(c1)OC(C)(C)CC2c1cc[n+]([O-])cc1 (stereo not given) ?
I

Band for CCCCOC(=O)C1=C(C)NC2=C(C(=O)CCC2)C1c1ccc(OC)c(Br)c1 (stereo not given) ?
I

Band for CCCCCCCCNc1c2ccc(Cl)cc2nc2ccc(OC)cc12 ?
III

Band for Nc1nc(N)c2c(ccc3c2ccn3Cc2cccc3ccccc23)n1 ?
III

Band for N#CCCN1CCN(Cc2ccc(-c3ccc(-c4nc5cc(F)ccc5[nH]4)s3)cc2)CC1 ?
II

----------
molecular target: Hexose transporter 1 (Plasmodium falciparum); assay: ST_JUDE_LEISH: Cytotoxicity at 2uM final concentration against transgenic Leishmania Mexicana promastigotes LmPfHT that are glucose transport deficient and complemented with the Plasmodium falciparum hexose transporter. Activity is measured by DNA content using SYBR green in vitro; assay type: functional
result_type: inhibition (%)
Answer format: numeric, % implied, no suffix.

Previously resolved entries follow.
COc1ccc2nccc([C@@H](O)CN3CCC(NC(=O)c4ccc(Oc5ccccc5)cc4)CC3)c2c1 8.83
COc1ccc(-c2cc(C(=O)N[C@@H](CC3CCCCC3)C(=O)NCCN3CCCC3)ccc2O)cc1 1.9
Cc1cccc2nc(-c3cccc(-c4cccc(CN5CCC(CO)CC5)c4)c3)[nH]c12 8.91
CN(Cc1cccc(F)c1)C1CCN(c2cc(NC(=O)c3ccc(F)cc3)ccn2)CC1 6.01
COc1cc2nc(N3CCN(C(=O)c4c(Cl)nsc4-c4ccccc4Cl)CC3)nc(N)c2cc1OC 8.35

Query: inhibition; subject: COc1ccc(NC(=O)[C@H](CC(C)C)Nc2cc(C)nc(NCc3cccc(C)c3)n2)cc1
9.82

Query: inhibition; subject: O=C(Nc1ccccc1O)c1ccc(S(=O)(=O)c2ccc(Cl)cc2)cc1
4.67

Query: inhibition; subject: COc1c(C2CCN(CCCCNC(=O)c3ccc(NC(=O)c4ccc(C#N)cc4)cc3)CC2)ccc2c1CCCC2
0.65

Query: inhibition; subject: FC(F)(F)c1cc(CNCCCNc2nc3ccncc3[nH]2)ccc1Cl
1.51

Reference source: ChEMBL document CHEMBL3433997
